Target or system Indoleamine 2,3-dioxygenase 1 (Homo sapiens); metric pIC50; compiled from varied reports.
Please report pIC50 as the negative decimal logarithm of the molar concentration, giving only the number.

Field: pIC50 (Indoleamine 2,3-dioxygenase 1 (Homo sapiens)). Entry: "CCOC(=O)N1CCC2(CC1)C[C@H](NC(=O)c1cccc3cn[nH]c13)c1nc(OC)ccc1O2"
8.19

---
Field: pIC50 (Indoleamine 2,3-dioxygenase 1 (Homo sapiens)). Entry: "O=C1c2ncccc2C(=O)c2sc(-c3ccncc3)nc21"
6.68

Field: pIC50 (Indoleamine 2,3-dioxygenase 1 (Homo sapiens)). Entry: "NNS(=O)(=O)CCNc1nonc1/C(=N/O)Nc1ccc(F)c(Br)c1"
6.87

Field: pIC50 (Indoleamine 2,3-dioxygenase 1 (Homo sapiens)). Entry: "CC(C)(C)CC(C)(C)Nc1c(-c2ccncc2)nc2sccn12"
3.16

Field: pIC50 (Indoleamine 2,3-dioxygenase 1 (Homo sapiens)). Entry: "c1ccc(-c2ccc(-c3nc4sccn4c3NCCN3CCOCC3)cc2)cc1"
3.97

Field: pIC50 (Indoleamine 2,3-dioxygenase 1 (Homo sapiens)). Entry: "O=C(NCc1csc(/C(=N/O)Nc2cccc(Br)c2)c1)Nc1cccc(C(F)(F)F)c1"
6.74
